system.name: Carnitine O-palmitoyltransferase 1, liver isoform (Rattus norvegicus)
Sequence (P32198 whole entry, canonical isoform): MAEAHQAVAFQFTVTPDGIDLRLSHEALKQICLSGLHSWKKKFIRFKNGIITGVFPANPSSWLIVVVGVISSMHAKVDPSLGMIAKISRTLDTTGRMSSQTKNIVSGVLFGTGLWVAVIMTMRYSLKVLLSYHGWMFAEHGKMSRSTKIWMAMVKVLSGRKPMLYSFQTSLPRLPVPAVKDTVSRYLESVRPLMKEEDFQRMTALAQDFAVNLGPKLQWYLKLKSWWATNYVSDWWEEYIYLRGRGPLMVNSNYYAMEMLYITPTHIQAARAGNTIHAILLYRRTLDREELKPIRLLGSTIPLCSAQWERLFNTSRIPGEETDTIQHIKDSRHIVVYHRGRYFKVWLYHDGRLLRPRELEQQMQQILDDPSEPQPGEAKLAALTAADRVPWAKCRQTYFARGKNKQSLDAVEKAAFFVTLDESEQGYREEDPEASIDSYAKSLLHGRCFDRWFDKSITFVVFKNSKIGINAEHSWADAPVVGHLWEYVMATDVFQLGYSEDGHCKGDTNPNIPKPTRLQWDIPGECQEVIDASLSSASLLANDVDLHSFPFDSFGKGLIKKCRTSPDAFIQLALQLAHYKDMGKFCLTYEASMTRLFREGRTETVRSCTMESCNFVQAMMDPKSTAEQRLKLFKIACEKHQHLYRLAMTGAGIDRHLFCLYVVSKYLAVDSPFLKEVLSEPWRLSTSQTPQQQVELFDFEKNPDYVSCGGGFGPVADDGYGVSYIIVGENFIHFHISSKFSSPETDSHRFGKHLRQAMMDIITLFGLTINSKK
assay.name: SUPPLEMENTARY: Inhibition of Carnitine palmitoyltransferase 1, liver isoform
observed.property: IC50 (µM)

a = CN(C)C(=O)CCC(=O)Nc1cc(F)cc(-c2noc([C@H]3CCCCN3C(=O)COc3ccccc3)n2)c1
b = O=C([C@H]1CCCCN1C(=O)COc1ccccc1)N1Cc2ccc(O[C@H]3CCOC3)cc2C1
c = O=C(COc1ccccc1)N1CCCC[C@@H]1c1nc(-c2cccc(-c3n[nH]c(=O)o3)c2)n[nH]1
d = CCN(c1cc(C(=O)Nc2nc(CC(=O)O)cs2)cc2c1OCO2)S(=O)(=O)c1cc(Cl)ccc1OC
q: Ascending sort, IC50. To answer, arrange all of the labels according to the requested order.
a: b, d, a, c
(b: 0.0357 µM, d: 0.0859 µM, a: 0.253 µM, c: 0.367 µM)

a = Nc1cc(-c2noc([C@H]3CCCCN3C(=O)COc3ccccc3)n2)ccn1
b = O=C(COc1ccccc1)N1CCCC[C@@H]1c1nc(-c2cccc(-n3cn[nH]c3=O)c2)no1
c = CC(=O)Nc1cccc(-n2nnc([C@H]3CCCCN3C(=O)COc3ccccc3)n2)c1
q: Given 3 molecules, produce a descending ranking by IC50. Answer with the labels in sequence, matching the requested order.
a: b, a, c

I = COc1ccc(Cl)cc1S(=O)(=O)N1CCOc2c(C)cc(C(=O)Nc3ccc(CC(=O)O)cc3)cc21
II = O=C(COc1ccccc1)N1CCCC[C@@H]1c1nc(-c2ccc(S(=O)(=O)NCCO)cc2)no1
q: Two entries are listed, I and II . Which one carries the higher IC50? Answer with the label corresponding to your selection.
a: II

I = O=C1COc2cc(C#C[C@H]3CCCCN3C(=O)COc3ccccc3)ccc2N1
II = COc1ccc(Cl)cc1S(=O)(=O)N1CCOc2ccc(C(=O)Nc3ccccc3)cc21
III = O=C(COc1ccccc1)N1CCCC[C@@H]1c1noc(C2C[C@@H]3CC[C@H]2C3)n1 (stereo partly drawn)
q: Ordering: ascending IC50. I would appreciate it if you listed the labels in the requested order.
a: II, I, III
